Data origin, for the record: ChEMBL document CHEMBL5230153

target: Sigma non-opioid intracellular receptor 1 (Cavia porcellus, UniProt Q60492); assay: Displacement of [3H](+)-pentazocine from sigma 1 receptor in guinea pig brain membranes measured after 120 mins by scintillation counting method
Sequence (Q60492 whole entry): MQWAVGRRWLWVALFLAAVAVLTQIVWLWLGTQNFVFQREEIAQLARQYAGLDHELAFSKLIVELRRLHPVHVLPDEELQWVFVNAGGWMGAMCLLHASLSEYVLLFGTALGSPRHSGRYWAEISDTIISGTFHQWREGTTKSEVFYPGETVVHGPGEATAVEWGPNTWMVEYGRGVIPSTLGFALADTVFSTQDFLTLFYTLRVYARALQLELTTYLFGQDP
pKi: −log10 of the molar value.
Cut-off 6 on pKi, inclusive. At or above means condition met; below means condition not met.

Here are 3 compounds together with their reported answers.
>  <SMILES_INPUT>
C[C@H](CCN1CCC(NC(=O)CCCC(=O)NC2CCN(CC[C@@H](C)c3ccc(-c4ccccc4)cc3)CC2)CC1)c1ccc(-c2ccccc2)cc1

>  <ASSIGNED_LABEL>
condition met

$$$$
>  <SMILES_INPUT>
C[C@H](CCN1CCC(NC(=O)COCCOCC(=O)NC2CCN(CC[C@@H](C)c3ccc(-c4ccccc4)cc3)CC2)CC1)c1ccc(-c2ccccc2)cc1

>  <ASSIGNED_LABEL>
condition met

$$$$
>  <SMILES_INPUT>
C[C@H](CCN1CCC(NC(=O)COCCOCCOCCOCCNC(=O)c2ccccc2)CC1)c1ccc(-c2ccccc2)cc1

>  <ASSIGNED_LABEL>
condition not met

$$$$

Input: I'd appreciate it if you could say whether C[C@H](CCN1CCC(NC(=O)c2ccccc2C(=O)NC2CCN(CC[C@@H](C)c3ccc(-c4ccccc4)cc3)CC2)CC1)c1ccc(-c2ccccc2)cc1 has pKi at least equal to 6.
Output: condition met

Input: Does the compound CC(=O)NC1CCN(CC[C@@H](C)c2ccc(-c3ccccc3)cc2)CC1 have recorded pKi that is 6 or more?
Output: condition met

Input: Test whether the compound C[C@H](CCN1CCC(NC(=O)CC(=O)NC2CCN(CC[C@@H](C)c3ccc(-c4ccccc4)cc3)CC2)CC1)c1ccc(-c2ccccc2)cc1 records pKi of 6 or higher.
Output: condition met
